# measured target: feline FcRn complex (FcRn-α subunit and β-microglobulin), biotin labeled (feline)
# experimental protocol: SPR, pH 6
observed property: Kd (nM)
Lab book: enter the figure in nM, no units written.

Example entries and their recorded answers appear below.
{"binder": "feline IgG1a S252H/S434P (antibody, part only; not given: Variable domains, not shown: another chain or arm of the molecule) constant: ASTTAPSVFPLAPSCGTTSGATVALACLVLGYFPEPVTVSWNSGALTSGVHTFPAVLQASGLYSLSSMVTVPSSRWLSDTFTCNVAHPPSNTKVDKTVRKTDHPPGPKPCDCPKCPPPEMLGGPSIFIFPPKPKDTLHISRTPEVTCLVVDLGPDDSDVQITWFVDNTQVYTAKTSPREEQFNSTYRVVSVLPILHQDWLKGKEFKCKVNSKSLPSPIERTISKAKGQPHEPQVYVLPPAQEELSRNKVSVTCLIKSFHPPDIAVEWEITGQPEPENNYRTTPPQLDSDGTYFVYSKLSVDRSHWQRGNTYTCSVSHEALHPHHTQKSLTQSPGK", "units symbol": "nM", "Kd": 9.32}
{"binder": "feline IgG1a T256W (antibody, part only; not given: Variable domains, not shown: another chain or arm of the molecule) constant: ASTTAPSVFPLAPSCGTTSGATVALACLVLGYFPEPVTVSWNSGALTSGVHTFPAVLQASGLYSLSSMVTVPSSRWLSDTFTCNVAHPPSNTKVDKTVRKTDHPPGPKPCDCPKCPPPEMLGGPSIFIFPPKPKDTLSISRWPEVTCLVVDLGPDDSDVQITWFVDNTQVYTAKTSPREEQFNSTYRVVSVLPILHQDWLKGKEFKCKVNSKSLPSPIERTISKAKGQPHEPQVYVLPPAQEELSRNKVSVTCLIKSFHPPDIAVEWEITGQPEPENNYRTTPPQLDSDGTYFVYSKLSVDRSHWQRGNTYTCSVSHEALHSHHTQKSLTQSPGK", "units symbol": "nM", "Kd": 25.2}
{"binder": "feline IgG1a S428K (antibody, part only; not given: Variable domains, not shown: another chain or arm of the molecule) constant: ASTTAPSVFPLAPSCGTTSGATVALACLVLGYFPEPVTVSWNSGALTSGVHTFPAVLQASGLYSLSSMVTVPSSRWLSDTFTCNVAHPPSNTKVDKTVRKTDHPPGPKPCDCPKCPPPEMLGGPSIFIFPPKPKDTLSISRTPEVTCLVVDLGPDDSDVQITWFVDNTQVYTAKTSPREEQFNSTYRVVSVLPILHQDWLKGKEFKCKVNSKSLPSPIERTISKAKGQPHEPQVYVLPPAQEELSRNKVSVTCLIKSFHPPDIAVEWEITGQPEPENNYRTTPPQLDSDGTYFVYSKLSVDRSHWQRGNTYTCSVKHEALHSHHTQKSLTQSPGK", "units symbol": "nM", "Kd": 70.2}

Task: Please look up its Kd: feline IgG1a A378P (antibody, part only; not given: Variable domains, not shown: another chain or arm of the molecule) constant: ASTTAPSVFPLAPSCGTTSGATVALACLVLGYFPEPVTVSWNSGALTSGVHTFPAVLQASGLYSLSSMVTVPSSRWLSDTFTCNVAHPPSNTKVDKTVRKTDHPPGPKPCDCPKCPPPEMLGGPSIFIFPPKPKDTLSISRTPEVTCLVVDLGPDDSDVQITWFVDNTQVYTAKTSPREEQFNSTYRVVSVLPILHQDWLKGKEFKCKVNSKSLPSPIERTISKAKGQPHEPQVYVLPPAQEELSRNKVSVTCLIKSFHPPDIPVEWEITGQPEPENNYRTTPPQLDSDGTYFVYSKLSVDRSHWQRGNTYTCSVSHEALHSHHTQKSLTQSPGK
Result: 68.4

The values you see were collected from patent US20240400708A1.
